# targetOrSystem: Anti-CD28 scFv (VH-linker 1-VL) (biotinylated for capture on neutravidin plates)
# Sequence (scFv, as listed by the source): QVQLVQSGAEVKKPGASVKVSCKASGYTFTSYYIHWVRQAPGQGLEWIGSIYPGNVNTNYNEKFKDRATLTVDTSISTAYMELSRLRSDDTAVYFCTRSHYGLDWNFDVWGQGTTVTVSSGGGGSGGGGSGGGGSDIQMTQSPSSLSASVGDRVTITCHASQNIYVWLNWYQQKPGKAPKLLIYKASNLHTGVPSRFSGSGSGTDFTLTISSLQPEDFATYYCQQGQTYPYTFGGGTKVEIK
# runDescription: phage ELISA, scFv captured on plate, competitor soluble CD28;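 further: crude clonal phage supernatants added to wells pre-incubated with soluble CD28 or with blocking buffer only as control, bound phage read out with HRP-linked anti-M13 antibody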
endpointName: Phage binding ELISA CD28 scFv signal in presence of CD28

{"columns": ["binder", "observedValue"],
 "data": [
  ["MDWCPRHMWYECFF [Phage-197]", 0.298],
  ["MDWCPRHLWYACFN [Phage-144]", 0.159],
  ["MDWCPRDLWHVCFF [Phage-121]", 0.268],
  ["MHWCPRALWHECFN [Phage-160]", 0.144],
  ["MNWCPSYMWDQCFA [Phage-213]", 0.105],
  ["MDWCPRDLWIECFF [Phage-128]", 0.137]
]}

Taken from patent US20230357447A1.
